Reference source: PubChem BioAssay AID1918995

The compounds listed here are annotated with their viability, T/C.
# Test system: 324938-238-R-J1-PDC complex spheroid growth, % test/control
# protocol-text: Anticancer human tumor 324938-238-R-J1-PDC patient-derived bladder carcinoma cell line growth inhibition [AhR]
# condition-description: second compound 3.16 µM; first compound 0.0316 µM; stronger effect = lower value
# value in %; strip the unit string

Before answering, review these 2 worked examples.
compound="Cn1ncnc1C1c2n[nH]c(=O)c3cc(F)cc(c23)NC1c1ccc(F)cc1 (stereo not drawn) + Cc1ccccc1N=Nc1ccc(NC(=O)c2ccnn2C)c(C)c1" target_of_assay="324938-238-R-J1-PDC complex spheroid growth, % test/control" readout_number=78.3
compound="COc1cccc2c1C(=O)c1c(O)c3c(c(O)c1C2=O)CC(O)(C(=O)CO)CC3OC1CC(N)C(O)C(C)O1 (stereo not drawn) + Cc1cncc(-c2nc(NCCc3c[nH]c4ccccc34)c3ncn(C(C)C)c3n2)c1" target_of_assay="324938-238-R-J1-PDC complex spheroid growth, % test/control" readout_number=81.8

Okay, next one:
*Q* Look up viability, T/C of Nc1ccccc1NC(=O)c1ccc(CNC(=O)OCc2cccnc2)cc1 + Cc1cncc(-c2nc(NCCc3c[nH]c4ccccc34)c3ncn(C(C)C)c3n2)c1 and report it.
*A* 64.2

###

# Tested on: 324938-238-R-J1-PDC complex spheroid growth, % test/control
# protocol-text: Anticancer human tumor 324938-238-R-J1-PDC cell line growth inhibition [AhR]; active = viability on the fitted dose curve at most 10% of control; inactive = the rest;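 also: spheroids exposed to agents for seven days before viability read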
# condition-description: second compound 10 µM; first compound 0.000949 µM
The reply should be one of these categories: active, inactive

Some solved cases for reference:
compound="CC(C)CC(NC(=O)C(Cc1ccccc1)NC(=O)c1cnccn1)B(O)O (stereo unspecified) + Cc1ccccc1N=Nc1ccc(NC(=O)c2ccnn2C)c(C)c1" label_value=inactive
compound="Nc1ncn(C2CC(O)C(CO)S2)c(=O)n1 (stereo unspecified) + Cc1cncc(-c2nc(NCCc3c[nH]c4ccccc34)c3ncn(C(C)C)c3n2)c1" label_value=inactive
compound="CC(C)CC(NC(=O)C(Cc1ccccc1)NC(=O)c1cnccn1)B(O)O (stereo unspecified) + CC(CO)NC(=O)c1cc(-c2ccc(Cl)cc2)nn(-c2cnn(C)c2)c1=O" label_value=inactive
compound="Nc1ncn(C2CC(O)C(CO)S2)c(=O)n1 (stereo unspecified) + CC(CO)NC(=O)c1cc(-c2ccc(Cl)cc2)nn(-c2cnn(C)c2)c1=O" label_value=inactive
compound="CCc1c2c(nc3ccc(O)cc13)-c1cc3c(c(=O)n1C2)COC(=O)[C@]3(O)CC + Cc1ccccc1N=Nc1ccc(NC(=O)c2ccnn2C)c(C)c1" label_value=inactive

*Q* Could you kindly confirm the outcome this assay logged for CC(C)CC(NC(=O)C(Cc1ccccc1)NC(=O)c1cnccn1)B(O)O (stereo unspecified) + Cc1cncc(-c2nc(NCCc3c[nH]c4ccccc34)c3ncn(C(C)C)c3n2)c1 ?
*A* active

###

# System: 324938-238-R-J1-PDC complex spheroid growth, % test/control
# protocol-text: Anticancer human tumor 324938-238-R-J1-PDC cell line growth inhibition [AhR]; active = viability on the fitted dose curve at most 10% of control; inactive = the rest;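 also: spheroids exposed to agents for seven days before viability read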
# condition-description: second compound 1 µM; first compound 10 µM
Hi there, use one of these labels in your reply, thanks! active, inactive

Example results:
molecule="O=C(C=Cc1cccc(S(=O)(=O)Nc2ccccc2)c1)NO + CC(CO)NC(=O)c1cc(-c2ccc(Cl)cc2)nn(-c2cnn(C)c2)c1=O" label_value=active
molecule="COc1cc(Nc2ncc3c(n2)-c2ccc(Cl)cc2C(c2c(F)cccc2OC)=NC3)ccc1C(=O)O + CC(CO)NC(=O)c1cc(-c2ccc(Cl)cc2)nn(-c2cnn(C)c2)c1=O" label_value=inactive
molecule="O=C(C=Cc1cccc(S(=O)(=O)Nc2ccccc2)c1)NO + Cc1ccccc1N=Nc1ccc(NC(=O)c2ccnn2C)c(C)c1" label_value=inactive
molecule="NS(=O)(=O)OCC1CC(n2ccc3c(NC4CCc5ccccc54)ncnc32)CC1O (configuration not stated) + Cc1cncc(-c2nc(NCCc3c[nH]c4ccccc34)c3ncn(C(C)C)c3n2)c1" label_value=inactive
molecule="Nc1ccccc1NC(=O)c1ccc(CNC(=O)OCc2cccnc2)cc1 + CC(CO)NC(=O)c1cc(-c2ccc(Cl)cc2)nn(-c2cnn(C)c2)c1=O" label_value=inactive
molecule="CC(C)c1c(-c2ccccc2)nc2c(C#N)c[nH]n2c1=O + Cc1cncc(-c2nc(NCCc3c[nH]c4ccccc34)c3ncn(C(C)C)c3n2)c1" label_value=inactive
molecule="CC1(C)CCC(CN2CCN(c3ccc(C(=O)NS(=O)(=O)c4ccc(NCC5CCOCC5)c([N+](=O)[O-])c4)c(Oc4cnc5[nH]ccc5c4)c3)CC2)=C(c2ccc(Cl)cc2)C1 + Cc1ccccc1N=Nc1ccc(NC(=O)c2ccnn2C)c(C)c1" label_value=inactive
molecule="CC1COCCN1c1cc(C2(S(C)(=N)=O)CC2)nc(-c2ccnc3[nH]ccc23)n1 (configuration not stated) + Cc1ccccc1N=Nc1ccc(NC(=O)c2ccnn2C)c(C)c1" label_value=inactive

*Q* State the result this test recorded for COc1cc(Nc2ncc3c(n2)-c2ccc(Cl)cc2C(c2c(F)cccc2OC)=NC3)ccc1C(=O)O + Cc1ccccc1N=Nc1ccc(NC(=O)c2ccnn2C)c(C)c1 .
*A* inactive

*Q* What call does the record list for Nc1ccn(C2OC(CO)C(O)C2(F)F)c(=O)n1 (configuration not stated) + CC(CO)NC(=O)c1cc(-c2ccc(Cl)cc2)nn(-c2cnn(C)c2)c1=O ?
*A* inactive

*Q* Could you kindly confirm the outcome this assay logged for NS(=O)(=O)OCC1CC(n2ccc3c(NC4CCc5ccccc54)ncnc32)CC1O (configuration not stated) + Cc1ccccc1N=Nc1ccc(NC(=O)c2ccnn2C)c(C)c1 ?
*A* inactive

*Q* Which outcome was entered for the molecule CC1(C)CCC(CN2CCN(c3ccc(C(=O)NS(=O)(=O)c4ccc(NCC5CCOCC5)c([N+](=O)[O-])c4)c(Oc4cnc5[nH]ccc5c4)c3)CC2)=C(c2ccc(Cl)cc2)C1 + Cc1cncc(-c2nc(NCCc3c[nH]c4ccccc34)c3ncn(C(C)C)c3n2)c1 in this test?
*A* inactive

###

Consider the following compounds and their measured log10 IC50 readings.
# Test system: 324938-238-R-J1-PDC complex spheroid growth, % test/control
# protocol-text: Anticancer human tumor 324938-238-R-J1-PDC cell line growth inhibition [AhR];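 also: spheroids exposed to agents for seven days before viability read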
# condition-description: curve of first compound; second compound 10 µM
Scale: log10; quantity: IC50; unit before log: µM

Example results:
compound="COc1ccc([C@@H](O)c2cc(-c3ncnc4cc(N5CCOCC5)ccc34)c(F)cc2Cl)nn1 + Cc1ccccc1N=Nc1ccc(NC(=O)c2ccnn2C)c(C)c1" readout_number=0.87
compound="CC1COCCN1c1cc(C2(S(C)(=N)=O)CC2)nc(-c2ccnc3[nH]ccc23)n1 (configuration not stated) + CC(CO)NC(=O)c1cc(-c2ccc(Cl)cc2)nn(-c2cnn(C)c2)c1=O" readout_number=-0.04

*Q* State its log10 IC50: O=C(C=Cc1cccc(S(=O)(=O)Nc2ccccc2)c1)NO + CC(CO)NC(=O)c1cc(-c2ccc(Cl)cc2)nn(-c2cnn(C)c2)c1=O
*A* 0.55

*Q* Note log10 IC50 for the compound shown: CC1(C)CCC(CN2CCN(c3ccc(C(=O)NS(=O)(=O)c4ccc(NCC5CCOCC5)c([N+](=O)[O-])c4)c(Oc4cnc5[nH]ccc5c4)c3)CC2)=C(c2ccc(Cl)cc2)C1 + Cc1ccccc1N=Nc1ccc(NC(=O)c2ccnn2C)c(C)c1
*A* 0.75

*Q* Give the value of log10 IC50 reported for the following: Nc1ccccc1NC(=O)c1ccc(CNC(=O)OCc2cccnc2)cc1 + CC(CO)NC(=O)c1cc(-c2ccc(Cl)cc2)nn(-c2cnn(C)c2)c1=O
*A* 0.43

*Q* Output log10 IC50 of CC[C@@]1(O)C(=O)OCc2c1cc1n(c2=O)Cc2cc3c(CN(C)C)c(O)ccc3nc2-1 + Cc1ccccc1N=Nc1ccc(NC(=O)c2ccnn2C)c(C)c1
*A* -1.70

###

# Test system: 324938-238-R-J1-PDC complex spheroid growth, % test/control
# protocol-text: Anticancer human tumor 324938-238-R-J1-PDC cell line growth inhibition [AhR]; active = viability on the fitted dose curve at most 10% of control; inactive = the rest;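 also: spheroids exposed to agents for seven days before viability read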
# condition-description: second compound 10 µM; first compound 1 µM
Lab note: assign the record to one of active, inactive

Worked cases, answers included:
compound="O=C(c1cc(Cc2n[nH]c(=O)c3ccccc23)ccc1F)N1CCN(C(=O)C2CC2)CC1 + Cc1cncc(-c2nc(NCCc3c[nH]c4ccccc34)c3ncn(C(C)C)c3n2)c1" target_of_assay="324938-238-R-J1-PDC complex spheroid growth, % test/control" label_value=active
compound="CC1COCCN1c1cc(C2(S(C)(=N)=O)CC2)nc(-c2ccnc3[nH]ccc23)n1 (centres undefined) + Cc1cncc(-c2nc(NCCc3c[nH]c4ccccc34)c3ncn(C(C)C)c3n2)c1" target_of_assay="324938-238-R-J1-PDC complex spheroid growth, % test/control" label_value=inactive
compound="CC(C)c1c(-c2ccccc2)nc2c(C#N)c[nH]n2c1=O + Cc1cncc(-c2nc(NCCc3c[nH]c4ccccc34)c3ncn(C(C)C)c3n2)c1" target_of_assay="324938-238-R-J1-PDC complex spheroid growth, % test/control" label_value=active
compound="CC1COCCN1c1cc(-c2ccnn2C)c2ccnc(-c3ccn[nH]3)c2n1 (centres undefined) + CC(CO)NC(=O)c1cc(-c2ccc(Cl)cc2)nn(-c2cnn(C)c2)c1=O" target_of_assay="324938-238-R-J1-PDC complex spheroid growth, % test/control" label_value=inactive
compound="NS(=O)(=O)OCC1CC(n2ccc3c(NC4CCc5ccccc54)ncnc32)CC1O (centres undefined) + Cc1cncc(-c2nc(NCCc3c[nH]c4ccccc34)c3ncn(C(C)C)c3n2)c1" target_of_assay="324938-238-R-J1-PDC complex spheroid growth, % test/control" label_value=inactive

*Q* Which outcome was assigned to CC(C)c1c(-c2ccccc2)nc2c(C#N)c[nH]n2c1=O + CC(CO)NC(=O)c1cc(-c2ccc(Cl)cc2)nn(-c2cnn(C)c2)c1=O in this test?
*A* inactive

*Q* Name the outcome recorded for COc1cc(C2c3cc4c(cc3C(OC3OC5COC(C)OC5C(O)C3O)C3COC(=O)C23)OCO4)cc(OC)c1O (centres undefined) + Cc1cncc(-c2nc(NCCc3c[nH]c4ccccc34)c3ncn(C(C)C)c3n2)c1 in the assay.
*A* active
